B1: Ankyrin repeat and SAM domain-containing protein 6, residues 774 to 836; numbered along this chain, Q68DC2 (parent)
chain: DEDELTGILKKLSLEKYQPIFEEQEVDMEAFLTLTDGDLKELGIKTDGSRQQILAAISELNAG

variants of: B1; experiment: abundance fitness (aPCA) (normalised: wild type 0, dead -1); higher = more abundant; growth selection in yeast, the domain comes from the species named; conditions: Homo sapiens
Rule: abundance fitness under -0.6 gives F, otherwise T.

| seq | label |
| --- | --- |
| DEDELTGILKKLSLEKYQPIFEEQEVDMEAFLTLTDGILKELGIKTDGSRQQILAAISELNAG | F |
| DEDELTGILKKLSLEKYQPIFEEQEVDMEAFLTLTDGDLKELGIKTDGSPQQILAAISELNAG | F |
| DTDELTGILKKLSLEKYQPIFEEQEVDMEAFLTLTDGDLKELGIKTDGSRQQILAAISELNAG | T |
| DEDELTGILKKLSLEKYQPIKEEQEVDMEAFLTLTDGDLKELGIKTDGSRQQILAAISELNAG | T |
| DEDELTGILKKLSLEKYQPGFEEQEVDMEAFLTLTDGDLKELGIKTDGSRQQILAAISELNAG | T |
| DEDELTGILKKLSLEKYQPIFEEQEVDMEAFLTSTDGDLKELGIKTDGSRQQILAAISELNAG | T |
| DEDELTGILKKLSLEKYQPIFEEQEVDMEAFLTLTQGDLKELGIKTDGSRQQILAAISELNAG | T |
| DEDELTGILKKLSLEKYQPIFEEQEVQMEAFLTLTDGDLKELGIKTDGSRQQILAAISELNAG | T |
| DEDELTGILKKLSLEKYQPIFEEQEVDMEAFLTLTDGDDKELGIKTDGSRQQILAAISELNAG | T |
| DEDELTGILKKLSLEKYQPIFEEQEVDMEAFLTLTDGDKKELGIKTDGSRQQILAAISELNAG | F |
| DEDELTGILKKLSLEKYQPIFEEQEVDMEAFLTLTDGDLKELGIKTDLSRQQILAAISELNAG | T |
| DEDELTGILSKLSLEKYQPIFEEQEVDMEAFLTLTDGDLKELGIKTDGSRQQILAAISELNAG | T |
| DEDELTGPLKKLSLEKYQPIFEEQEVDMEAFLTLTDGDLKELGIKTDGSRQQILAAISELNAG | F |
